# assay system: Adenosine receptor A2a (Homo sapiens, UniProt P29274)
# Sequence (P29274 whole entry): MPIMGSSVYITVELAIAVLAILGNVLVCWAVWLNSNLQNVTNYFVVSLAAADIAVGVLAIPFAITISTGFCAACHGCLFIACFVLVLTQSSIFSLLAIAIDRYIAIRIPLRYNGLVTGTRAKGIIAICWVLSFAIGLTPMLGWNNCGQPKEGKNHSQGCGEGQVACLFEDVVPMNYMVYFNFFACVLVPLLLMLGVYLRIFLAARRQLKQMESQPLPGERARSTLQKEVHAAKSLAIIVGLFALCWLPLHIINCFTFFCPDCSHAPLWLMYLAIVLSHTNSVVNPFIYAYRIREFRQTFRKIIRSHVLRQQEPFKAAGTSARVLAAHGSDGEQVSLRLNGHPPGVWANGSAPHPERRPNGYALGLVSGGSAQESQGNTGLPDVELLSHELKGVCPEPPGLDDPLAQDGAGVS
# test protocol: Displacement of [3H]ZM241385 at human A2A receptor expressed in CHO cell membrane at 1 uM after 60 mins by scintillation counting method
# Assay type: cell membranes
# inhibition >= 10% gives rule met, anything below gives rule not met

Query string: Can `COc1ccc(-c2nc(N)c3nn(-c4ccc(OC)cc4)cc3n2)cc1` be said to have inhibition at or above 10%?
Result string: rule not met

Query string: Can `O=C(Nc1nc(-c2ccccc2)nc2cn(-c3ccccc3)nc12)c1cccs1` be said to have inhibition at or above 10%?
Result string: rule not met

Query string: Can `O=C(Nc1nc(-c2ccccc2)nc2cn(Cc3ccccc3)nc12)c1ccccc1` be said to have inhibition at or above 10%?
Result string: rule met

Query string: Can `Cc1ccc(-c2nc3cn(-c4ccccc4)nc3c(=O)[nH]2)o1` be said to have inhibition at or above 10%?
Result string: rule met

Query string: Can `O=c1[nH]c(-c2cccs2)nc2cn(-c3ccccc3)nc12` be said to have inhibition at or above 10%?
Result string: rule met

Query string: Can `O=C(Nc1nc(-c2cccs2)nc2cn(-c3ccccc3)nc12)c1ccco1` be said to have inhibition at or above 10%?
Result string: rule met

Query string: Can `COc1ccc(C(=O)Nc2nc(-c3ccc(OC)cc3)nc3cn(-c4ccccc4)nc23)cc1` be said to have inhibition at or above 10%?
Result string: rule not met

Query string: Can `O=C(Cc1ccccc1)Nc1nc(-c2cccs2)nc2cn(-c3ccccc3)nc12` be said to have inhibition at or above 10%?
Result string: rule not met

Query string: Can `Nc1nc(-c2ccc(O)cc2)nc2cn(-c3ccccc3)nc12` be said to have inhibition at or above 10%?
Result string: rule met

Query string: Can `O=c1[nH]c(-c2ccccc2)nc2nn(-c3ccccc3)nc12` be said to have inhibition at or above 10%?
Result string: rule met
